Overview of recorded grams of stock solution required to solubilize the drug, Stock #1 for various compounds
- TEST PROTOCOL: Initial solubility screening of selected drugs in cyclodextrin derivative:water-miscible organic solvent stock solutions
- Assay type: physicochemical
- TEST CONDITIONS: 20-22 mg drug; HBenβCD5.0 (30 wt %), PEG 400 (70 wt %); raloxifene HCl + ca. 100 mg water, tamoxifen citrate + ca. 40 mg water
Where a name gives a salt, the structure may show the parent alone.
PARAMETER: grams of stock solution required to solubilize the drug, Stock #1 (grams)

* O=C(c1ccc(OCCN2CCCCC2)cc1)c1c(-c2ccc(O)cc2)sc2cc(O)ccc12 [Raloxifene HCL] | 1.5
* C=C1C[C@@H]2[C@H](CC[C@]3(C)C(=O)CC[C@@H]23)[C@@]2(C)C=CC(=O)C=C12 | 1.5
* CC(=O)O[C@H]1C(=O)[C@@]2(C)[C@H]([C@H](OC(=O)c3ccccc3)[C@]3(O)C[C@H](OC(=O)[C@H](O)[C@@H](NC(=O)c4ccccc4)c4ccccc4)C(C)=C1C3(C)C)[C@]1(OC(C)=O)CO[C@@H]1C[C@@H]2O | 1.0
* CC(C)(C#N)c1cc(Cn2cncn2)cc(C(C)(C)C#N)c1 | 1.0
